- assayed.target: T1, Anti-CD28 Fab (SEQ ID NOs: 696, 697)
- T1 construct: Biotinylated and captured on neutravidin coated plates in the phage ELISA
- T1 sequence (VH, as listed by the source, chain 1 of 2): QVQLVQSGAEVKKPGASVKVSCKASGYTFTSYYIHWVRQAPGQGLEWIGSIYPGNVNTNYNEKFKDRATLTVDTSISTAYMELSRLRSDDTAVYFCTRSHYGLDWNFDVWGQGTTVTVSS
- T1 sequence (VL, as listed by the source, chain 2 of 2): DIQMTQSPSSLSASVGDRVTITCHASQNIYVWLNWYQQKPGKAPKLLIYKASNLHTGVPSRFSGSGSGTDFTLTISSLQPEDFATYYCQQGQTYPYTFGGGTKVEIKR
- test.details: phage binding ELISA; Fab wells pre-incubated with CD28 antigen as competitor, anti-M13 HRP
Where no end group is shown, it is not given here.
endpoint.label: Anti-CD28 Fab signal in the presence of CD28

YCDGHLPEYREKCF (cysteine pairing not given here; also: displayed on phage as fusion to pIII, linker, pIII sequence and order not given here, Clonal phage supernatant; not shown: pIII filament protein of the bacteriophage to which the peptide is fused) [Phage-538] ... 0.07
YCDGHLPIYMSKCL (cysteine pairing not given here; also: displayed on phage as fusion to pIII, linker, pIII sequence and order not given here, Clonal phage supernatant; not shown: pIII filament protein of the bacteriophage to which the peptide is fused) [Phage-536] ... 0.08
YCQGHLPMYMAKCL (cysteine pairing not given here; also: displayed on phage as fusion to pIII, linker, pIII sequence and order not given here, Clonal phage supernatant; not shown: pIII filament protein of the bacteriophage to which the peptide is fused) [Phage-529] ... 0.08
YCDGHSPMYILKCL (cysteine pairing not given here; also: displayed on phage as fusion to pIII, linker, pIII sequence and order not given here, Clonal phage supernatant; not shown: pIII filament protein of the bacteriophage to which the peptide is fused) [Phage-531] ... 0.08
YCDGHLPEYMMKCL (cysteine pairing not given here; also: displayed on phage as fusion to pIII, linker, pIII sequence and order not given here, Clonal phage supernatant; not shown: pIII filament protein of the bacteriophage to which the peptide is fused) [Phage-530] ... 0.11
YCQGHLPMYMEKCL (cysteine pairing not given here; also: displayed on phage as fusion to pIII, linker, pIII sequence and order not given here, Clonal phage supernatant; not shown: pIII filament protein of the bacteriophage to which the peptide is fused) [Phage-532] ... 0.09
YCDGHLPMYMQKCL (cysteine pairing not given here; also: displayed on phage as fusion to pIII, linker, pIII sequence and order not given here, Clonal phage supernatant; not shown: pIII filament protein of the bacteriophage to which the peptide is fused) [Phage-535] ... 0.11
